Assay: In vitro intrinsic clearance in microsomes, dog
Assay type: in vitro ADME
Conditions: pH 7.4; Assay 3; dog female microsomes, 0.5 uM compound, 0.5 mg/mL protein, 37° C.
outcome.measure: microsomal CLint at 0.5 uM

As a guide, the following entries are already answered.
smiles.text: CC[C@H](C)[C@@H]1C(=O)N[C@H](C2Cc3ccccc3C2)C(=O)N1[C@@H](C(=O)N1CCOCC1)c1ccc(C)nc1C
microsomal CLint at 0.5 uM: 1 to 8 mL/min/g

smiles.text: CC[C@H](C)[C@@H]1C(=O)N[C@H](C2Cc3ccccc3C2)C(=O)N1[C@@H](C(=O)NC)c1ccc(C)nc1C
microsomal CLint at 0.5 uM: 1 to 8 mL/min/g

Measured microsomal CLint at 0.5 uM, "CC[C@H](C)[C@@H]1C(=O)N[C@H](C2Cc3ccccc3C2)C(=O)N1[C@@H](C(=O)NC)c1cnc(C)cc1C" : 1 to 8 mL/min/g

###

Assay: In vitro intrinsic clearance in microsomes, human
Type: in vitro ADME
Details: pH 7.4; Assay 3; human female microsomes, 0.5 uM compound, 0.5 mg/mL protein, 37° C.
# key: entry, value: microsomal CLint at 0.5 uM

As a guide, the following entries are already answered.
compound: CC[C@H](C)[C@@H]1C(=O)N[C@H](C2Cc3ccccc3C2)C(=O)N1[C@@H](C(=O)NC)c1ccc(C)nc1C
microsomal CLint at 0.5 uM: 1 to 8 mL/min/g
--
compound: CC[C@H](C)[C@@H]1C(=O)N[C@H](C2Cc3ccccc3C2)C(=O)N1[C@@H](C(=O)NC)c1cnc(C)cc1C
microsomal CLint at 0.5 uM: 1 to 8 mL/min/g
--
compound: CC[C@H](C)[C@@H]1C(=O)N[C@H](C2Cc3ccccc3C2)C(=O)N1[C@@H](C(=O)N1CCOCC1)c1cnc(C)cc1C
microsomal CLint at 0.5 uM: 1 to 8 mL/min/g

Measured microsomal CLint at 0.5 uM, Cc1ccc([C@H](C(=O)N(C)C)N2C(=O)[C@@H](C3Cc4ccccc4C3)NC(=O)[C@H]2CC(C)C)cn1 [Comparator X, reference compound] : 9 to 15 mL/min/g

Measured microsomal CLint at 0.5 uM, "CC[C@H](C)[C@@H]1C(=O)N[C@H](C2Cc3ccccc3C2)C(=O)N1[C@@H](C(=O)N1CCOCC1)c1ccc(C)nc1C" : 1 to 8 mL/min/g

###

Test: In vitro intrinsic clearance in microsomes, dog
Format: in vitro ADME
Settings: pH 7.4; Assay 3; dog female microsomes, 0.5 uM compound, 0.5 mg/mL protein, 37° C.
# key: entry, value: microsomal CLint at 0.5 uM

As a guide, the following entries are already answered.
compound: CC[C@H](C)[C@@H]1C(=O)N[C@H](C2Cc3ccccc3C2)C(=O)N1[C@@H](C(=O)N1CCOCC1)c1cnc(C)cc1C
microsomal CLint at 0.5 uM: 1 to 8 mL/min/g
--
compound: CC[C@H](C)[C@@H]1C(=O)N[C@H](C2Cc3ccccc3C2)C(=O)N1[C@@H](C(=O)N(C)C)c1ccc(C)nc1C
microsomal CLint at 0.5 uM: 1 to 8 mL/min/g

# context switch: different compound, same microsomal CLint at 0.5 uM
Measured microsomal CLint at 0.5 uM, Cc1ccc([C@H](C(=O)N(C)C)N2C(=O)[C@@H](C3Cc4ccccc4C3)NC(=O)[C@H]2CC(C)C)cn1 [Comparator X, reference compound] : 1 to 8 mL/min/g
